Property: ADCC, Percent Non-Viable cells (EC50 pM), Donor 2; scope: individual binders
- tested_system: human CCR8 (human, UniProt P51685 1-355)
- Sequence (P51685 whole entry): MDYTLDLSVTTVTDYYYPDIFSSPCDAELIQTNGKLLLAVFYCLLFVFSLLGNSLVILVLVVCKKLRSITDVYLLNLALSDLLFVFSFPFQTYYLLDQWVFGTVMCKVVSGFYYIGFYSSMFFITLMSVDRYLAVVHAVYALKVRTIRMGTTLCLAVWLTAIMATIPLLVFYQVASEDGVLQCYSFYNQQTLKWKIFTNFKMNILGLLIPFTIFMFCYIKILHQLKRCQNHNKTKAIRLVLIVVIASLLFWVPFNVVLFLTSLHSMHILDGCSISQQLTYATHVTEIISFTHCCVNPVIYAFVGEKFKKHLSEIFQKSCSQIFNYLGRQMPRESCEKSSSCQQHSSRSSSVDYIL
- run_description: cell-based or functional assay
Your answer is read as pM, so omit the unit and give the number.

Some entries whose results are on file:
Antibody 2.1 IgG1 (LC: F2I_P51S_H53Q_L103V_N148K, HC: K87N_S94N_V98A)(LC: Y25A_S26A, HC: A71I_D72R) (antibody, V domains shown) VH: QVQLVESGGGVVQPGRSLRLSCAASGFTFSNYGMHWVRQAPGKGLEWVAVISYDGSNKFYIRSVKGRFTISRDNSKNTLYLQMNSLRAEDTAVYYCARAGGIGRFDYWGQGTLVTVSS VL: DIVMTQTPLSLSVTPGQPASISCKAAQSLLHSDGKTYLFWYLQKPGQSPQLLIYEVSNRFSGVPDRFSGSGSGTDFTLKISRVEAEDVGVYYCMQTLKLPLTFGGGTKVEIKR; 13.3
Antibody 2.2 IgG1 (LC: F2I_P51S_H53Q_L103V_N148K, HC: K87N_S94N_V98A)(LC: Y25A, HC: A71L_D72K) (antibody, V domains shown, Afucosylated IgG1) VH: QVQLVESGGGVVQPGRSLRLSCAASGFTFSNYGMHWVRQAPGKGLEWVAVISYDGSNKFYLKSVKGRFTISRDNSKNTLYLQMNSLRAEDTAVYYCARAGGIGRFDYWGQGTLVTVSS VL: DIVMTQTPLSLSVTPGQPASISCKASQSLLHSDGKTYLFWYLQKPGQSPQLLIYEVSNRFSGVPDRFSGSGSGTDFTLKISRVEAEDVGVYYCMQTLKLPLTFGGGTKVEIKR; 6.04

With those in mind, consider the next binder.
Short answer for Antibody 5.0 IgG1 (antibody, V domains shown) VH: QVQLVESGGGVVQPGRSLRLSCAASGFTFSSYGMHWVRQAPGKGLEWVAVISYDGSNKYYADSVKGRFTISRDNSKNTLYLQMNSLRAEDTAVYYCARGRYFDWFLFDYWGQGTLVTVSS VL: DTVMTQTPLSLSVTPGQPASISCKSSQSLLHSDGKTYLFWYLQKPGQPPQLLISEVSNRFSGVPDRFSGSGSGTDFTLKISRVEAEDVGFYYCMQSLRLPLTFGGGTKVEIKR : ADCC, Percent Non-Viable cells (EC50 pM), Donor 2 was 167

The reported numbers originate from patent US20250171549A1.
